- Assay Remarks: BET inhibitor-based combinations targeting novel dependencies in MECOM-rearranged (r) AML: AML-194 cell line (AID 2202237; also: nearly all actives have a fitted effect of over 40% in size)
- Details: AML-194 (MECOM-r AML) viability, CellTiter-Glo, 48 h; series mostly up to 46 µM
Records with an inconclusive call do not appear. Active and inactive are the calls of the source. Calls follow the shape of the dose curve; as a rule, active = well fitted inhibition curve with a large enough effect; inconclusive = small, poorly fitted or top-dose-only effect; inactive = flat fitted curve, though single readings scatter.
Outcomes: active, inactive

Molecule: CCNC(=O)Nc1ncc(-c2cc(-c3c(C)cc(OC)cc3C)nc(-c3cnccn3)n2)s1
Answer Label: inactive
--
Molecule: Cc1cccc(-c2[nH]c(C(C)(C)C)nc2-c2ccc3c(c2)OCO3)n1
Answer Label: active
--
Molecule: CC(=O)Oc1cc2c(s1)CCN(C(C(=O)C1CC1)c1ccccc1F)C2 (stereo not given)
Answer Label: inactive
--
Molecule: CS(=O)(=O)N(Cc1ccco1)CC(O)Cn1c2ccccc2c2ccccc21 (stereo not given)
Answer Label: inactive
--
Molecule: Nc1nc(N)nc(-c2cc(Cl)ccc2Cl)n1
Answer Label: inactive
--
Molecule: CC(=O)c1c(C)c2cnc(Nc3ccc(N4CCNCC4)cn3)nc2n(C2CCCC2)c1=O
Answer Label: active
--
Molecule: Cc1cnc(-c2cc(N3CCN(C(=O)CCS(C)(=O)=O)CC3)ncc2Cl)c(C)c1
Answer Label: inactive
--
Molecule: CCS(=O)(=O)N1CCN(c2ccc(Nc3ncc(C(N)=O)c(NC4CC4)n3)cc2)CC1
Answer Label: active
--
Molecule: CCN(CC)CCCC(C)Nc1c2ccc(Cl)cc2nc2ccc(OC)cc12 (stereo not given)
Answer Label: active
--
Molecule: CN(C)C(=O)[C@H](O)[C@H](Cc1ccccc1)NC(=O)c1cc2cc(Cl)ccc2[nH]1
Answer Label: inactive
